targetOfAssay: Human immunodeficiency virus type 1 reverse transcriptase (Human immunodeficiency virus 1) (UniProt Q72547)
assayProtocol: Inhibition of recombinant HIV1 reverse transcriptase using 234-nt long RNA/18-mer DNA oligonucleotide as template/primer assessed as remaining activity at 200 uM preincubated for 15 mins followed by incubation with template/primer for 40 mins by liquid scintillation counting in presence of alpha[P33]-dCTP relative to control
Use 70% as the dividing line for Activity, with the line itself on the Criterion met side and lower values as Criterion not met.

### Prompt Is reported Activity greater than or equal to 70% here: `Nc1c(NCCO)cc(Nc2ccccc2)c2c1C(=O)c1ccccc1C2=O`
### Response Criterion not met

### Prompt Determine whether measured Activity meets or exceeds 70% for `CCCn1c(NCCN(CC)CC)nc2c1c(=O)[nH]c(=O)n2C`
### Response Criterion met

### Prompt Identify whether the reported Activity of the following compound is 70% or greater: `CCOC(=O)c1[nH]c2ccc(F)cc2c1NC(=O)NC1CCCCC1`
### Response Criterion not met

### Prompt Please check the record `Cc1ccnc2c1NC(=O)c1cccnc1N2C1CC1` and state if its Activity is at or above 70%.
### Response Criterion not met

### Prompt Check this compound for Activity at or above 70%: Cc1ccc(Nc2nc(NCC3CCCO3)nc(Nc3ccc(C)cc3)n2)cc1 (stereo in doubt; 8(n.p))
### Response Criterion not met

====

Some compounds, each annotated with its measured IC50.
targetOfAssay: Human immunodeficiency virus type 1 reverse transcriptase (Human immunodeficiency virus 1)
assayProtocol: Inhibition of HIV1 reverse transcriptase using 234-nt long RNA/18-mer DNA oligonucleotide as template/primer preincubated for 15 mins followed by incubation with template/primer for 40 mins by liquid scintillation counting in presence of alpha[P33]-dCTP
experimentalSetup: read-out: IC50

Sure, the documented IC50 for `Cc1ccccc1Nc1nc(N)nc(CN(C)Cc2ccc(F)cc2)n1` is > 200 µM

Query `Cc1ccc(Nc2nc(N)nc(COC(=O)c3cnc4ccccc4n3)n2)cc1` yields IC50 of > 200 µM

Record summary for `Cc1ccc(Nc2nc(COc3ccc(Cl)cc3)nc(=N)[nH]2)cc1` : reported IC50 = > 200 µM

# IC50 (compound: `Cc1c(CCC(=O)NCC(=O)NCC(=O)O)c(=O)oc2c(C)c(O)ccc12` ) is > 200 µM

IC50 recorded for this compound, `Cc1ccc2[nH]c(=O)c(CN(CCCO)C(=S)NC[C@@H]3CCCO3)cc2c1` , is > 200 µM

# compound `CCCn1c(NCCN(CC)CC)nc2c1c(=O)[nH]c(=O)n2C` ; its IC50 = > 200 µM

# IC50 of Cc1ccc(Nc2nc(NCC3CCCO3)nc(Nc3ccc(C)cc3)n2)cc1 (stereo in doubt; 8(n.p)) = 106 µM

Input `Nc1c(NCCO)cc(Nc2ccccc2)c2c1C(=O)c1ccccc1C2=O` . Output IC50: > 200 µM

Entry `O=C1NC(=S)N(CCC2=CCCCC2)C(=O)/C1=C\NCCO` — recorded IC50 = > 200 µM

Memo: `CCOC(=O)c1[nH]c2ccc(F)cc2c1NC(=O)NC1CCCCC1` , reported IC50: > 50 µM

Turning now to a further compound:
Recorded IC50 (compound `Cc1ccccc1Nc1nc(Cn2ccc(C(F)(F)F)cc2=O)nc(=N)[nH]1` ): > 200 µM

====

assayProtocol: Cytotoxicity against human U2OS cells assessed as reduction of cell viability after 48 hrs
Type: cell-based
Documented CC50 at 48 h across a set of molecules

Recorded results for 5 molecules are shown here.
# CC50 at 48 h (molecule: `Cc1ccc(Nc2nc(N)nc(Nc3ccc(C)cc3)n2)cc1` ) is 42.2 µM

Per the record, `Cc1ccc(Nc2nc(N)nc(COC(=O)c3cnc4ccccc4n3)n2)cc1` has CC50 at 48 h of > 50 µM

The molecule `Cc1ccc(Nc2nc(O)nc(Nc3ccc(C)cc3)n2)cc1` showed CC50 at 48 h equal to > 12.5 µM

The reported value for `Cc1ccc(Nc2nc(Nc3ccc(C)cc3)nc(Nc3ccc(C)cc3)n2)cc1` in terms of CC50 at 48 h is > 50 µM

In plain terms, Cc1ccc(Nc2nc(NCC3CCCO3)nc(NCC3CCCO3)n2)cc1 (stereo unspecified) has a documented CC50 at 48 h of > 50 µM

Please examine the following record next.
Please fill in: CC50 at 48 h reported for `Cc1ccnc2c1NC(=O)c1cccnc1N2C1CC1` = > 100 µM

====

targetOfAssay: Human immunodeficiency virus type 1 reverse transcriptase (Human immunodeficiency virus 1) (UniProt Q72547)
assayProtocol: Inhibition of recombinant HIV1 reverse transcriptase using 234-nt long RNA/18-mer DNA oligonucleotide as template/primer assessed as remaining activity at 50 uM preincubated for 15 mins followed by incubation with template/primer for 40 mins by liquid scintillation counting in presence of alpha[P33]-dCTP relative to control
# Activity per entry
Write down the numeric answer in % and omit the unit.

Reference set (2 entries):
The reported Activity of the compound `Nc1nc(COC(=O)c2c[nH]c3ccccc23)nc(Cc2ccc(F)cc2)n1` was 86

Notebook: `O=C1NC(=S)N(CCC2=CCCCC2)C(=O)/C1=C\NCCO` , Activity read as 92

Others:
Sure, the documented Activity for `Cc1ccc(Nc2nc(COc3ccc(Cl)cc3)nc(=N)[nH]2)cc1` is 79

Reported Activity of Cc1ccnc2c1NC(=O)c1cccnc1N2C1CC1 [NEVIRAPINE] : 13.7

// sample `Cc1c(CCC(=O)NCC(=O)NCC(=O)O)c(=O)oc2c(C)c(O)ccc12` , its Activity was 92

Consider `CCCn1c(NCCN(CC)CC)nc2c1c(=O)[nH]c(=O)n2C` . Its measured Activity is 89

====

targetOfAssay: Human immunodeficiency virus type 1 reverse transcriptase (Human immunodeficiency virus 1)
assayProtocol: Inhibition of recombinant HIV1 reverse transcriptase using 234-nt long RNA/18-mer DNA oligonucleotide as template/primer assessed as remaining activity at 200 uM preincubated for 15 mins followed by incubation with template/primer for 40 mins by liquid scintillation counting in presence of alpha[P33]-dCTP relative to control
Quick list: Activity per entry.
Mention the unit after the number when you answer.

Examples with answers:
The molecule listed as `Cc1ccccc1Nc1nc(Cn2ccc(C(F)(F)F)cc2=O)nc(=N)[nH]1` shows Activity equal to 89%

Activity for `Cc1ccccc1Nc1nc(N)nc(CN(C)Cc2ccc(F)cc2)n1` is 89%

Memo: `Cc1c(CCC(=O)NCC(=O)NCC(=O)O)c(=O)oc2c(C)c(O)ccc12` , reported Activity: 93%

Continuing:
For record `Cc1ccc(Nc2nc(N)nc(COC(=O)c3cnc4ccccc4n3)n2)cc1` the listed Activity is 54%

Entry under test: `Cc1ccc(Nc2nc(COc3ccc(Cl)cc3)nc(=N)[nH]2)cc1` . Its Activity was 86%
